biological target: class B enzyme CcrA from Bacteroides fragilis (Bacteroides fragilis); assay: β-Lactamase inhibition, spectrophotometric nitrocefin hydrolysis assay, CcrA; format: biochemical; details: enzyme 1.2 nM; 10 minutes preincubation at 25° C.; nitrocefin 50 μg/ml; 50 mM PO4, pH 7.0; read-out: IC50 (nM) Ccr-A
Sequence (P25910 19-249): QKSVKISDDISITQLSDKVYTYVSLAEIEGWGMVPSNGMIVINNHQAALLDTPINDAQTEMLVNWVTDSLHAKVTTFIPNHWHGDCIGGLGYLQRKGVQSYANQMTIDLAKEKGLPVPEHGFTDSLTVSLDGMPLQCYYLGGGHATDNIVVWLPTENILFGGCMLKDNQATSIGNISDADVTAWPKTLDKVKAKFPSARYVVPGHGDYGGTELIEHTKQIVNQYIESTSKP
Where a name gives a salt, the structure may show the parent alone.
I'd be grateful if you could share measured IC50 for these entries.
Report as a plain number; the unit nM is understood.

**Q:** # get_value(readout='IC50', item= O=C(O)C1=CS[C@@H]2/C(=C\c3c[nH]c(-c4ccccc4)n3)C(=O)N12 )
**A:** 220

**Q:** # get_value(readout='IC50', item= O=C(O)C1=CS[C@@H]2/C(=C\c3c[nH]c(Cc4ccccc4)n3)C(=O)N12 [Example 3, Sodium Salt] )
**A:** 190

**Q:** # get_value(readout='IC50', item= O=C(O)C1=CS[C@@H]2/C(=C\c3c[nH]c(-c4nccs4)n3)C(=O)N12 [Example 4, Sodium Salt] )
**A:** 230

Hey, just so you know, these numbers are from patent US20040053913A1.
